Give Percent Effect for every item shown.
# TARGET OR TEST SYSTEM: Protein translocase subunit SecA (Escherichia coli (strain K12))
# MEASUREMENT PROTOCOL: Assay to Identify E. coli SecA ATPase Inhibitors
# Format: functional
# Design: scale not given: direction of the effect not stated beside the values
# ASSAY CONTEXT: 30 µM
Measured potencies and affinities stand elsewhere.
Numbers only, in %.

[
  {
    "COMPOUND": "Cc1nn(C)c(Cl)c1CNCc1ccc(OCC(N)=O)cc1",
    "TARGET OR TEST SYSTEM": "Protein translocase subunit SecA (Escherichia coli (strain K12))",
    "Percent Effect, %": -6.28
  },
  {
    "COMPOUND": "COc1cc(C(=O)NS(=O)(=O)c2cccc(C#N)c2)cc(Cl)c1OC",
    "TARGET OR TEST SYSTEM": "Protein translocase subunit SecA (Escherichia coli (strain K12))",
    "Percent Effect, %": -2.08
  },
  {
    "COMPOUND": "CCc1nccn1C1CCCN(C(=O)Cc2n[nH]c3ccccc23)C1 (centres undefined)",
    "TARGET OR TEST SYSTEM": "Protein translocase subunit SecA (Escherichia coli (strain K12))",
    "Percent Effect, %": -3.99
  }
]

Please examine the following record next.
What value of measured Percent Effect is listed for `Cc1ncsc1CCC(=O)N1CCCC[C@H](N(C)C)C1` ?
-5.77
